Source listed as patent US7160888B2.

biological target: D2 receptor (Homo sapiens); assay: [3H]Thymidine uptake assay for D2 intrinsic activity; assay type: cell-based; details: Table 1; test compound 1 μM; 1 μM Quinpirole = 100% intrinsic activity
Sequence (P14416 whole entry): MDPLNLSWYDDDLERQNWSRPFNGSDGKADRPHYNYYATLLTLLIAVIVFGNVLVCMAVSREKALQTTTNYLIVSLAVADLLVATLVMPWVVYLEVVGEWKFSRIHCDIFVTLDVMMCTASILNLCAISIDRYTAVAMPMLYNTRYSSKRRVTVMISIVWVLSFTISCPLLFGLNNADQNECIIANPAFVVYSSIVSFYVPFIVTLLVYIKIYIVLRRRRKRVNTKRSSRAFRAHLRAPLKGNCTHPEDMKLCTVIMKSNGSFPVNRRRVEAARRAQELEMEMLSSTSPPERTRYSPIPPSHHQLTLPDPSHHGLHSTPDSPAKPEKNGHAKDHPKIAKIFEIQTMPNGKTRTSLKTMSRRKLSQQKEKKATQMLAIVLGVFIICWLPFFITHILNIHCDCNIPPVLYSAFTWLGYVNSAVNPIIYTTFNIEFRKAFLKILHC
Threshold 30%: Emax at 1 µM strictly smaller gives Fulfilled, otherwise Not fulfilled.

{"COMPOUND": "O=C1CCc2cccc(N3CCN(CCCCOc4ccc5c(n4)NC(=O)CC5)CC3)c2C1 [Example A56]", "LABEL": "Fulfilled"}
{"COMPOUND": "Cc1cc(OCCCCN2CCN(c3cccc4ccccc34)CC2)nc2c1CCC(=O)N2 [Example E10]", "LABEL": "Not fulfilled"}
{"COMPOUND": "O=C1CCc2ccc(OCCCCN3CCN(c4ccccn4)CC3)nc2N1 [Example A43]", "LABEL": "Not fulfilled"}
{"COMPOUND": "CC1(C)CC(=O)Nc2nc(OCCCCN3CCN(c4cccc(Cl)c4Cl)CC3)ccc21 [Example D17]", "LABEL": "Fulfilled"}
{"COMPOUND": "O=C1NCc2ccc(OCCCCN3CCN(c4cccc5c4CCCC5)CC3)nc2N1 [Example F4]", "LABEL": "Fulfilled"}
{"COMPOUND": "Cc1cc(N2CCN(CCCCOc3ccc4c(n3)NC(=O)CC4)CC2)c(Cl)cc1F [Example A13]", "LABEL": "Fulfilled"}
{"COMPOUND": "CC(C)(CCCN1CCN(c2cccc(Cl)c2Cl)CC1)Oc1ccc2c(n1)NC(=O)CC2 [Example C7]", "LABEL": "Not fulfilled"}
{"COMPOUND": "CC1(C)CC(=O)Nc2nc(OCCCCN3CCN(c4cccc5c4CCCC5)CC3)ccc21 [Example D18]", "LABEL": "Not fulfilled"}
